meta.source: PubChem BioAssay

- Tested on: glycogen synthase kinase-3 (GSK3A per assay name; protocol says GSK3B)
- method: GSK3 binders on small-molecule microarrays, primary screen, biochemical, small-molecule microarray, 635 nm fluorescence, GSK3A (AID 1103); further: the record names both GSK3A and GSK3B
- particulars: small-molecule microarray binding, fluorescence 635 nm; higher = more signal
Label Y for high-side composite z-score (at or above -0.1) and N for low-side composite z-score (below it).

See these solved cases before continuing.
Exercise: Exam item: decide whether the reported composite z-score for CC[C@H]1C2=C3C(CC[C@H]4C(OCc5ccc(F)cc5C(F)(F)F)OC[C@](C)([C@@H]34)N(C(=O)OC(C)(C)C)C2)C(COC(C)=O)C1COC(C)=O (stereo not given in full) is at least -0.1.
Key: Y

Exercise: Record C=C(C(=O)CC[C@@H](OC(=O)c1ccccc1-c1ccccc1C(=O)O)c1ccc(CO)o1)C(C)C ; criterion: composite z-score no lower than -0.1. Met?
Key: Y

Exercise: Dear colleague, could you confirm whether C=C(CCCC)C(=O)CC[C@H](OC(=O)c1ccccc1-c1ccccc1C(=O)O)c1cccc(OCCO)c1 has composite z-score at or above -0.1?
Key: N

Exercise: Confirm if composite z-score reported for the compound COc1ccc(C(=O)Nc2ccc(CN3C(=O)[C@@]4(O[C@@H](CC(=O)N(CCO)Cc5ccccc5)[C@H]([Si](C)(C)c5ccc(OC)cc5)[C@H]4C)c4ccccc43)cc2)cc1 is -0.1 or above.
Key: N

Exercise: In plain terms: is recorded composite z-score at least -0.1 for COc1ccc(-c2cc3c(c(CCc4ccccc4)n2)[Si](C(C)C)(C(C)C)O[C@H]3c2ccccc2)cn1 ?
Key: N

Next:
Exercise: Is the recorded value of composite z-score equal to or greater than -0.1 for this compound? C=CCNC(=O)[C@@H]1[C@H]2C(=O)O[C@H](c3ccccc3)[C@H](c3ccccc3)N2[C@H](c2ccc(O)cc2)[C@@]12C(=O)N(C(=O)OCCOC)c1ccc(C#CCC(C(=O)OC)C(=O)OC)cc12
Key: Y

Exercise: Determine whether measured composite z-score meets or exceeds -0.1 for COc1ccc([Si](C)(C)[C@H]2[C@H](CC(=O)N3CCC[C@H]3CO)O[C@@]3(C(=O)N(Cc4cccc(N5CCCCC5=O)c4)c4ccccc43)[C@@H]2C)cc1
Key: Y

Exercise: Has COc1cccc(C)c1NC(=O)O[C@H]1[C@H](OC(=O)Nc2ccccc2-c2ccccc2)[C@@H](OC(=O)Nc2ccccc2-c2ccccc2)[C@@H](OC)O[C@@H]1CO a recorded composite z-score greater than or equal to -0.1?
Key: Y

Exercise: Decide: is the reported value of composite z-score for CCOC(=O)C1=CC[C@@H](c2ccccc2)N(S(=O)(=O)c2ccc(C)cc2)[C@@H]1C#N equal to or greater than -0.1?
Key: N

Exercise: Exam item: decide whether the reported composite z-score for C=CC[C@]1(C(N)=O)N=C(c2ccc(OCCCO)cc2)O[C@H]1c1ccccc1N=[N+]=[N-] is at least -0.1.
Key: Y

###

Record form. Attribute: composite z-score. Fill in for each entry.
- system: Neurogenic locus notch homolog protein 2 (Homo sapiens)
- method: Notch2 binders on small-molecule microarrays, primary screen, biochemical, small-molecule microarray, 635 nm fluorescence, stem cell growth factors (AID 1073)
- particulars: Notch2 binding, higher = more signal
Numbers only.

Exercise: Please give the measured composite z-score for this compound: CN(C)CCCC[C@@H]1NC(=O)[C@H]2C[C@@H](C(=O)NCCCCCCNC(=O)CS)[C@@H](c3cccc(OCCO)c3)N2C1=O
Key: -0.486

Exercise: Report composite z-score for CCCCCCCCCCC(O)C1C=CC2C(=O)N(C)C(=O)C2N1Nc1ccccc1 (stereo unspecified) please.
Key: -0.932

Exercise: If you can, please state the reported composite z-score value of Cc1ccc(S[C@]2(C(=O)NC3CC3)CC(=O)N(C3Cc4ccccc4C3)[C@@H]2c2ccc(CO)cc2I)cc1 .
Key: -0.603

Exercise: What value of measured composite z-score is listed for C=C(C(=O)CC[C@H](OC(=O)c1ccccc1-c1ccccc1C(=O)O)c1ccc(OCCO)cc1)C(C)C ?
Key: 0.214

Exercise: Form field: reported composite z-score of [N-]=[N+]=NCc1ccccc1[C@H]1OC(c2ccc(OCCCO)cc2)=N[C@@]1(Cc1ccccc1N=[N+]=[N-])C(=O)O
Key: 1.37

Exercise: Name the reported composite z-score value associated with the compound CC(=O)NCCCC[C@@H]1NC(=O)[C@H]2C[C@@H](C(=O)NCCCCCN)[C@@H](c3ccc(O)cc3)N2C1=O
Key: 1

Exercise: Consider the compound CN1C2C=C(c3ccc(CO)cc3)C(C3C(=O)N(C(N)=O)C(=O)C32)C1C1CC1 (stereo unspecified) and give its measured composite z-score.
Key: -0.161

Exercise: Can you share its composite z-score? I mean this compound: CCCC1(C(=O)OC)C=C2C(=C(C(C)C)C(=O)C2C)CN1 (stereo unspecified)
Key: -0.052

Take each entry in turn and give its composite z-score.
1. CCCCC(=C=CC[C@@H](O)c1ccc(OCCO)cc1)CCO
2. C=C[C@H](C)[C@@H](OC(=O)Nc1ccc(SC)cc1)c1ccc(OCCO)cc1

Key:
1. -0.051
2. -0.421

Exercise: Look up composite z-score: CC[C@@H]1C=C(C(=O)O)[C@H](c2cccc(Cl)c2)N1S(=O)(=O)c1ccc(C)cc1
Key: 1.36

###

What z-score was measured for each of the following?
- method: HepG2 cell viability effects, profiling panel, calcein-AM fluorescence, 48 h, basal (AID 1164); further: test concentration not given here
- particulars: higher = more signal
Give bare numbers.

Please review the following examples before continuing.
Exercise: Quick check: z-score of COC(=O)c1ccc(OC)c(/C=C\CC(OC(=O)c2ccncc2)c2ccccc2)c1 (stereo unspecified) ?
Key: 1.04

Exercise: I have this molecule here, COC(=O)[C@@]1(Cc2ccc(F)cc2)[C@H]2c3cc(C(=O)N4CCCC4)n(Cc4ccc(OC(F)(F)F)cc4)c3C[C@H]2CN1C(=O)c1ccccc1 , and I need its recorded z-score.
Key: 0.0322

Exercise: Give its z-score value. Item: CN1C(=O)C2C=CC(C(O)c3ccc(I)cc3)N(N(c3ccccc3)c3ccccc3)C2C1=O (stereo unspecified)
Key: -0.0518

Exercise: Report z-score for CCCNC(=O)[C@@]1(Sc2ccc(C)cc2)CC(=O)N(Cc2cc(C(F)(F)F)cc(C(F)(F)F)c2)[C@@H]1c1ccc(CO)cc1 please.
Key: -0.609

Exercise: Look up z-score for this molecule: Cc1c(NC(=O)/C(C#N)=C/C=C/c2ccc([N+](=O)[O-])cc2)c(=O)n(-c2ccccc2)n1C
Key: -0.182

Could you tell me z-score for each of these molecules? They are listed below.
1. COCCOC(=O)N1C(=O)[C@@]2(c3cc(C#CCC(C(=O)OC)C(=O)OC)ccc31)[C@H](C(N)=O)[C@H]1C(=O)O[C@H](c3ccccc3)[C@H](c3ccccc3)N1[C@@H]2c1ccccc1OCCO
2. CCCCC(=C=CC[C@@H](O)c1ccccc1OCCO)C[C@@H](O)c1ccccn1
3. CCCCCCc1nc(-c2ccc(OC)nc2)c(C)c2c1[Si](C(C)C)(C(C)C)OC2
4. O=C1C2C=CC(C(O)C3CC=CCC3)N(Nc3ccc([N+](=O)[O-])cc3)C2C(=O)N1c1ccccc1 (stereo unspecified)

Key:
[0.645, 0.242, 0.002, -1.55]

Consider the following items and state reported z-score for each.
1. COC(=O)[C@H]1N=C(c2ccc(OCCCO)cc2)O[C@H]1c1ccccc1N=[N+]=[N-]
2. CC1(C)OB(/C=C\CC(OC(=O)c2ccncc2)c2ccccc2)OC1(C)C (stereo unspecified)
3. O=C(NC1CC1)[C@@H]1c2ccccc2C(=O)N(C2CCCCC2)[C@H]1c1ccc(CO)cc1

Key:
[-0.151, -0.691, 1.12]

For each of the items listed, what is its z-score?
1. COc1ccc(NN2C(C(O)c3ccc(F)cc3)C=CC3C(=O)N(C4CCCCC4)C(=O)C32)cc1 (stereo unspecified)
2. COc1cc(Cc2cc3c(c(CCc4ccccc4)n2)[Si](C(C)C)(C(C)C)O[C@H]3c2ccccc2)cc(OC)c1OC
3. C=C(C(=O)CC[C@@H](OC(=O)c1ccccc1-c1ccccc1C(=O)O)c1cccc(OCCO)c1)C(C)C
4. COC(=O)[C@@]1(Cc2ccc(F)cc2)[C@H]2c3cc(C(=O)N(C)C)n(Cc4cccc5ccccc45)c3C[C@H]2CN1C(=O)c1ccccc1

Key:
[-0.0716, -3.15, -0.474, 0.156]

###

- Test system: wheat germ agglutinin (Triticum aestivum), Alexa647-labelled
- method: wheat germ agglutinin binders on compound microarrays, profiling panel, artefact control for SMM control-protein annotation, biochemical, small-molecule microarray, 635/667 nm fluorescence (AID 1140);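 further: score merges 667 nm feature emission with signal to noise over triplicate slides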
- particulars: WGA-A647 binding, 635 nm fluorescence, higher = more signal
Label Met when composite z-score is at or above 0.4; anything below gets Not met.

Would you please look over these solved cases?
Exercise: Test whether the molecule COc1ccc(NN2C(C(O)c3ccccc3)C=CC3C(=O)N(C4CCCCC4)C(=O)C32)cc1 (configuration not stated) records composite z-score of 0.4 or higher.
Key: Met

Exercise: Given C=CC[C@H](O)c1ccc(O)c(F)c1 , state whether its composite z-score is at least 0.4.
Key: Not met

Turning to the following molecule.
Exercise: Reported composite z-score reaches at least 0.4 for C[N+](C)(C)CCCC[C@@H]1NC(=O)[C@H]2C[C@@H](C(=O)O)[C@@H](c3ccc(O)cc3)N2C1=O ?
Key: Not met
